Data provenance: the supplement of paper PMC7877785

assayProcedure: self-splicing fitness, log relative to wild type (ln ratio); higher = more splicing; Tetrahymena group I intron in knt gene, E. coli kanamycin selection, DiMSum; sequences stand for … in CUCUCU…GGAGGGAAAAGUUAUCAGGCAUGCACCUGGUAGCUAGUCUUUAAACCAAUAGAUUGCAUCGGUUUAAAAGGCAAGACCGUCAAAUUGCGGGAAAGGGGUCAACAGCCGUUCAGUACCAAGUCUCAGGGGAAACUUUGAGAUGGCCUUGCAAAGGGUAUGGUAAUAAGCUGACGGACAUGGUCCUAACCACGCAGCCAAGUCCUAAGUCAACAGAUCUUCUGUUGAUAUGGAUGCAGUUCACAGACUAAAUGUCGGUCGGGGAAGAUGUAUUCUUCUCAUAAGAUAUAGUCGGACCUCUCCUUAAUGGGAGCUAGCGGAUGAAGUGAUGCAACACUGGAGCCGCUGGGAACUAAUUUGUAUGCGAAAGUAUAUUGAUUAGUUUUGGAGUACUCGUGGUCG;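 further: selection with 25 µg/mL kanamycin versus none on LB agar overnight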
assayContext: 37 °C
endpointName: self-splicing fitness (ln)
# respond with the number and nothing more

**Q:** Report measured self-splicing fitness (ln); entry is `ACAUAGCAAUAUUACGACCG`
**A:** -0.154

**Q:** Determine its reported self-splicing fitness (ln): `AGGGAGCAAUAUUACGGUUC`
**A:** -1.7

**Q:** Respond only with self-splicing fitness (ln) recorded for `AUGUAGCAAUAUUACGUACA`
**A:** -0.328

**Q:** Query self-splicing fitness (ln) for `AUUAAGCAAUAUUACGCUGC`
**A:** -1.98
